Target: T1, human Klotho β (human, UniProt Q86Z14 1-1044)
T1 sequence (looked up): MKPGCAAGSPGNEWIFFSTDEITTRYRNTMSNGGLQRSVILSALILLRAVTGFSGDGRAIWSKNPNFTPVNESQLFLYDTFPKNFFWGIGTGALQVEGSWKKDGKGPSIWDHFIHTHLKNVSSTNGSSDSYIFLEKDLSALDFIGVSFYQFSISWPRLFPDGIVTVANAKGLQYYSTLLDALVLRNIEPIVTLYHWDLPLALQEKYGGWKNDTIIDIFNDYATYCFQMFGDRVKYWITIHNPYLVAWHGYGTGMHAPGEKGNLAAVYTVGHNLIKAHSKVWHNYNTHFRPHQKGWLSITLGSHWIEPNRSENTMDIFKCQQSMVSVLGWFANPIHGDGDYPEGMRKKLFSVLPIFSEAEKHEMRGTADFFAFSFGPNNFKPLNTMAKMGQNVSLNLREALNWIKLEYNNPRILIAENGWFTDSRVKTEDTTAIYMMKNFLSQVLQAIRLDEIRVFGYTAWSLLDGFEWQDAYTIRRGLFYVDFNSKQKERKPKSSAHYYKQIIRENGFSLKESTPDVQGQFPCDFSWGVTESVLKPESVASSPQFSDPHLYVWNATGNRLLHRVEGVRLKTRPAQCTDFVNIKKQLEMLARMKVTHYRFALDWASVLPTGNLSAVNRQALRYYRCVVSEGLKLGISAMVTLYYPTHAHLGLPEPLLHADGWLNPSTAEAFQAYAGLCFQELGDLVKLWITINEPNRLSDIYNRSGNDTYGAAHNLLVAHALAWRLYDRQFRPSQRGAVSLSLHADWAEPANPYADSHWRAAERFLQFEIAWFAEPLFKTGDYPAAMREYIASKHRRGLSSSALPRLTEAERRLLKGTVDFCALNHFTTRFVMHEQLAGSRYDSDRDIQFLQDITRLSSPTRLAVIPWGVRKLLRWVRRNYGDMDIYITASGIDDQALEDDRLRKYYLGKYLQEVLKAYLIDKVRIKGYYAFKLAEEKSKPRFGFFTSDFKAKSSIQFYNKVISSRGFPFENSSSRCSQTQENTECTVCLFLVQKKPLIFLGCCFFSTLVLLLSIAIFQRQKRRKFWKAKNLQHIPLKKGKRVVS
Experiment: cell-based or functional assay
Non-standard residues stand in square brackets, D forms with d. No end group written: not given here.
Items are presented alongside their recorded IC50 of antagonism of FGF21 (assay of Example 1).
Parameter: IC50 of antagonism of FGF21 (assay of Example 1) (µM)

{"Binder": "PPDVGSSDPLSMVGPSQGRSPSY[dA]S-NH2 [FGF21 C25 d24]", "Value Observed": 1.13}
{"Binder": "PP[dD]VGSSDPLSMVGPSQGRSPSYAS-NH2 [FGF21 C25 d3]", "Value Observed": 6.1}
{"Binder": "P[dP]DVGSSDPLSMVGPSQGRSPSYAS-NH2 [FGF21 C25 d2]", "Value Observed": 4.72}
{"Binder": "PPDVGSSDPLSMVGPSQGRS[dP]SYAS-NH2 [FGF21 C25 d21]", "Value Observed": 7.8}
{"Binder": "PPDVGSSDPLSMVGP[dS]QGRSPSYAS-NH2 [FGF21 C25 d16]", "Value Observed": 0.531}
{"Binder": "PPDVG[dS]SDPLSMVGPSQGRSPSYAS-NH2 [FGF21 C25 d6]", "Value Observed": 1.98}
